Ref: the supplement of paper PMC10567573

B1: ADD1 (parent)
chain: GEGTGSPPKWQIGEQEFEALMRML

variants of: B1; assay: protein stability index of a GFP-peptide fusion (GPS, HEK-293T) (PSI 1-6); higher = more stable; conditions: c terminus: a fixed tail appended;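 note: lentivirally expressed fusions sorted by FACS into six bins by GFP to DsRed ratio, PSI derived from sequencing read proportions per bin multiplied by bin number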
Endpoint label: protein stability index
Numbers only.

* GEGIGSPPKWQIGEQEFEALMRML [T4I] | 2.75
* GEGTGSPCKWQIGEQEFEALMRML [P8C] | 2.27
* GEGTGVPPKWQIGEQEFEALMRML [S6V] | 2.46

For each listed entry, give its protein stability index.
1. GEGTGSPPKWQIGKQEFEALMRML [E14K]
2. GEGTGSPPKWKIGEQEFEALMRML [Q11K]
3. GEGTGSPPMWQIGEQEFEALMRML [K9M]
4. GEGTGPPPKWQIGEQEFEALMRML [S6P]
5. GEGTGSGPKWQIGEQEFEALMRML [P7G]
6. GEGTGSPPKWQIGEQIFEALMRML [E16I]
7. GEGTQSPPKWQIGEQEFEALMRML [G5Q]

stdout:
1. 3.61
2. 4.08
3. 2.93
4. 2.95
5. 2.52
6. 1.31
7. 3.49

Lab note: each variant below needs its protein stability index filled in.
1. GEGTGSFPKWQIGEQEFEALMRML [P7F]
2. GEGTGSPPKWQIGEQEMEALMRML [F17M]
3. GVGTGSPPKWQIGEQEFEALMRML [E2V]

stdout:
[3.61, 3.52, 3.94]

State recorded protein stability index for all listed variants.
1. GEGTLSPPKWQIGEQEFEALMRML [G5L]
2. QEGTGSPPKWQIGEQEFEALMRML [G1Q]
3. FEGTGSPPKWQIGEQEFEALMRML [G1F]
4. GEGTGSPPKWQEGEQEFEALMRML [I12E]

stdout:
1: 2.9; 2: 3.24; 3: 3.06; 4: 4.45
